These measurements were taken from patent US12152047B2.

Test system: HT-29 colon cancer cells
Test: Trypan blue assay, HT-29
Type: cell-based
Experimental: A Trypan blue assay was conducted to determine the cytotoxicity of certain compounds of the invention towards cisplatin-sensitive (A2780) and -resistant (A2780Cis) ovarian, prostate (PC3) and colon (HT-29) cancer cells. In order to determine the toxicity of the compounds, 5×10^4 cells per well were seeded into 24 well plates and allowed to grow for 24 hours. […] From this, 20 μL of cell suspension was removed, mixed with an equal volume of Trypan Blue and the cells were counted using a haemocytometer.
PARAMETER_MEASURED: IC50

The compound listed as CC(=O)OC[C@H]1O[C@@H]([S-])[C@H](OC(C)=O)[C@@H](OC(C)=O)[C@@H]1OC(C)=O.CCP(CC)CC.[Au+] shows IC50 equal to 510 nM
